test: tubulin staining increase by stabilizing compounds – imaging, high-content imaging, primary screen (AID 2205); details: HeLa tubulin immunostaining HCS, 24 h, at 10 µM; measured here: cytotoxicity by cell density;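 also: 0% = mean cell density of plate MIN control wells and 100% = no cells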
The whole screen tested about 200,000 compounds, of which about 1,600 (0.8%) were called active. Many of the other results were omitted from the sample, so actives are more common in it than they were.
Use class 1 when the recorded toxicity is no lower than 8%; use class 0 when it is lower.

INSERT INTO assay_data (molecule, cat) VALUES
  ('CCCC(=O)Nc1nc2ccc(NC(=O)c3c(F)c(F)c(OC)c(F)c3F)cc2s1', 'class 1'),
  ('Cc1ccc(-n2c(SCC(=O)N3c4ccccc4Sc4ccccc43)nnc2-c2ccncc2)cc1', 'class 0'),
  ('C=C(C)COc1ccc(-c2n[nH]c(C)c2-c2ccccc2OC)c(O)c1', 'class 0'),
  ('CC(/C=N/NC(=O)c1cc(-c2ccc3ccccc3c2)n[nH]1)=C\c1ccco1', 'class 1'),
  ('CCn1c(/C=C/Nc2ccccc2)[n+](CC)c2ccc(C(=O)OCC(F)(F)F)cc21', 'class 0'),
  ('O=C(CCn1ccc([N+](=O)[O-])n1)Nc1nccs1', 'class 1'),
  ('CC1CCc2c(sc3nc4n(c(=O)c23)CCS4)C1 (stereo not drawn)', 'class 1'),
  ('Cc1csc(NC(=O)Nc2ccccc2[N+](=O)[O-])n1', 'class 0'),
  ('COc1ccc(C(=O)NN(C)c2nc(-c3ccccc3)cc(C)c2S(C)(=O)=O)cc1', 'class 0'),
  ('C/C(CC1CC(C)(C)OC1=O)=N/Nc1nc(-c2ccccc2)cs1 (stereo not drawn)', 'class 1'),
  ('CCN(CC)S(=O)(=O)c1ccc(N(C)CCc2ccc(OC)c(OC)c2)nc1', 'class 0'),
  ('Cc1cccc(C)c1NC(=O)C(c1ccccc1)N1CC(=O)Nc2ccccc21 (stereo not drawn)', 'class 1'),
  ('CCOC(=O)c1cc(NC(=O)c2cccnc2)cc(C(=O)OCC)c1', 'class 0'),
  ('COc1ccc(C(=O)n2nc(-c3ccc(C)cc3)nc2N)cc1OC', 'class 1'),
  ('O=C(CSc1ccccn1)Nc1nc2c(ccc3ccccc32)s1', 'class 0'),
  ('Cc1ccc(-c2cc(C(=O)N/N=C/C=C/c3ccco3)c3ccccc3n2)cc1C', 'class 1'),
  ('CCOC(=O)CC(NC(=O)C1c2ccccc2Oc2ccccc21)c1ccc(C)cc1 (stereo not drawn)', 'class 0'),
  ('CCCCn1c(N)c(N(CC)C(=O)/C=C/c2ccco2)c(=O)[nH]c1=O', 'class 0'),
  ('Cc1cc(C)n(-c2nc(C(F)(F)F)nc3ccccc23)n1', 'class 0'),
  ('Fc1c(F)c(C(F)(F)F)c(F)c(F)c1N1CCN(c2ccc3nnc(C(F)(F)F)n3n2)CC1', 'class 1'),
  ('COC(=O)Cc1ccc(NC(=S)NCc2ccccc2)cc1', 'class 1'),
  ('COc1ccc(/C=C/C(=O)OCC(=O)Nc2cccc(Oc3ccccc3)c2)c(OC)c1', 'class 0'),
  ('Cc1nccn1CCCNC(=O)CC1C(=O)NCCN1Cc1ccc(Cl)c(F)c1 (stereo not drawn)', 'class 0'),
  ('Cc1cc(NC(=O)CSc2nc(C(C)C)nc3sc4c(c23)CCC(C)C4)no1 (stereo not drawn)', 'class 1'),
  ('Cc1ccsc1C(=O)N/N=C/c1ccc([N+](=O)[O-])cc1', 'class 0'),
  ('CCC(=O)Nc1cccc(NC(=O)c2cccnc2)c1', 'class 1'),
  ('CN(NC(=O)c1ccccc1F)c1nc(C(F)(F)F)nc2ccccc12', 'class 1'),
  ('Cc1ccc(NC(=O)CC2S/C(=N/N=C3\CCCc4ccccc43)NC2=O)cc1 (stereo not drawn)', 'class 1'),
  ('O=C(Cn1nnc(-c2ccccc2)n1)N/N=C/c1ccc(-c2ccc(Cl)cc2)o1', 'class 0'),
  ('CC(=O)c1cc(-c2ccccc2)n(CC(=O)NC2CCCCC2)c1C', 'class 0'),
  ('CC(=O)N1C(=O)/C(=C2\SC(=S)N(NC(=O)c3ccc(O)cc3)C2=O)c2ccccc21', 'class 0'),
  ('c1ccc(C2CNCc3c2ccc2ccccc32)cc1 (stereo not drawn)', 'class 1'),
  ('COCC(C)n1c(C)cc(C(=O)COc2ccc(C)nc2[N+](=O)[O-])c1C (stereo not drawn)', 'class 0'),
  ('COc1ccc(/C=C/C(=O)Nc2ccc3c(c2)OCCO3)cc1OC', 'class 1'),
  ('CCCC(=O)Nc1nc2ccc(NC(=O)c3cccnc3)cc2s1', 'class 1'),
  ('CN(NC(=O)c1ccccc1)c1nc2ccccc2nc1C(F)(F)F', 'class 1'),
  ('Cc1cccc(C(=O)Nc2ccccc2C(=O)NCc2cccnc2)c1', 'class 0'),
  ('CCOc1ccc(Br)cc1S(=O)(=O)Nc1ccc(C(=O)OC(C)C(=O)N(C)c2ccccc2)cc1 (stereo not drawn)', 'class 0'),
  ('COC(=O)CNC(=O)c1ccccc1F', 'class 1'),
  ('NS(=O)(=O)c1ccc(CCNC(=O)CCCn2c(SCC(=O)N3CCCC3)nc3ccsc3c2=O)cc1', 'class 0'),
  ('COc1ccc2nc(Nc3nc4ccc(NC(C)=O)cc4s3)sc2c1', 'class 0'),
  ('O=C(COC(=O)Cn1cnc2ccccc2c1=O)NCc1ccccc1Cl', 'class 0');

Reference for the values: PubChem BioAssay AID2205
